Experimental target: UniProt P08253
Measurement notes: In vitro inhibition of human Matrix metalloprotease 2
# Lookup of reported pIC50 keyed by entry
When answering, recall that pIC50 equals minus log10 of the concentration in mol/L, and write that number alone.

Before answering, review these 2 worked examples.
{"Cpd smiles": "CC(C)[C@@H](NS(=O)(=O)c1ccc(C#CCCCC[18F])cc1)C(=O)O", "pIC50": 5.72}
{"Cpd smiles": "CC(C)[C@@H](NS(=O)(=O)c1ccc(NC(=O)c2ccc(O[11CH3])cc2)cc1)C(=O)O", "pIC50": 6.96}

Field: pIC50 (UniProt P08253). Entry: `NCCN1CCN(C2(c3ccc(Oc4ccc(Br)cc4)cc3)C(=O)NC(=O)NC2=O)CC1`
8.00

----------
Measurement notes: Partition coefficient (logD7.4)
Format: physicochemical
Test context: octanol/water, pH 7.4
Label Y for high-side logD (at or above 6) and N for low-side logD (below it).

{"Cpd smiles": "COCCN1CCN(C2(c3ccc(Oc4ccc(OC)cc4)cc3)C(=O)N(C)C(=O)N(C)C2=O)CC1", "Class assignment": "N"}
{"Cpd smiles": "O=C1NC(=O)C(c2ccc(Oc3ccc(Br)cc3)cc2)(N2CCNCC2)C(=O)N1", "Class assignment": "N"}
{"Cpd smiles": "O=C1NC(=O)C(c2ccc(Oc3ccc(Br)cc3)cc2)(N2CCN(c3ccc([N+](=O)[O-])cc3)CC2)C(=O)N1", "Class assignment": "Y"}
{"Cpd smiles": "O=C1NC(=O)C(c2ccc(Oc3ccc(Br)cc3)cc2)(N2CCN(CCBr)CC2)C(=O)N1", "Class assignment": "N"}
{"Cpd smiles": "C[Si](C)(C)c1ccc(N2CCN(C3(c4ccc(Oc5ccc(Br)cc5)cc4)C(=O)NC(=O)NC3=O)CC2)cc1", "Class assignment": "Y"}

Could you please find out whether `O=C1NC(=O)C(c2ccc(Oc3ccc(Br)cc3)cc2)C(=O)N1` has logD that meets 6 or exceeds it?
N

Could you please find out whether `O=C1NC(=O)C(c2ccc(Oc3ccc(Br)cc3)cc2)(N2CCN(c3ccc(I)cc3)CC2)C(=O)N1` has logD that meets 6 or exceeds it?
Y

----------
Measurement notes: Partition coefficient (logD7.4)
Type: physicochemical
Test context: octanol/water, pH 7.4
# Lookup of reported logD keyed by entry
Format: numeric value only, no unit, no commentary.

Give the measured logD of `O=C(O)CCN1CCN(C2(c3ccc(Oc4ccc(Br)cc4)cc3)C(=O)NC(=O)NC2=O)CC1` .
0.81

Give the measured logD of `O=C1NC(=O)C(c2ccc(Oc3ccc(I)cc3)cc2)(N2CCN(CCO)CC2)C(=O)N1` .
3.68

Give the measured logD of `COc1ccc(Oc2ccc(C3(N4CCN(CCO)CC4)C(=O)NC(=O)NC3=O)cc2)cc1` .
1.79

Give the measured logD of `NCCN1CCN(C2(c3ccc(Oc4ccc(Br)cc4)cc3)C(=O)NC(=O)NC2=O)CC1` .
0.78

Give the measured logD of `O=C1NC(=S)NC(=O)C1(c1ccc(Oc2ccc(Br)cc2)cc1)N1CCN(CCO)CC1` .
3.85

Give the measured logD of `O=C1NC(=O)C(c2ccc(Oc3ccc(Br)cc3)cc2)(N2CCN(C(=O)c3cccc(I)c3)CC2)C(=O)N1` .
5.86

Give the measured logD of `CC(C)N1CCN(C2(c3ccc(Oc4ccc(Br)cc4)cc3)C(=O)NC(=O)NC2=O)CC1` .
4.47

Give the measured logD of `O=C1NC(=O)C(c2ccc(Oc3ccc(Br)cc3)cc2)(N2CCN(CCO)CC2)C(=O)N1` .
3.42

----------
Experimental target: 72 kDa type IV collagenase (Homo sapiens, UniProt P08253)
Sequence (P08253 whole entry): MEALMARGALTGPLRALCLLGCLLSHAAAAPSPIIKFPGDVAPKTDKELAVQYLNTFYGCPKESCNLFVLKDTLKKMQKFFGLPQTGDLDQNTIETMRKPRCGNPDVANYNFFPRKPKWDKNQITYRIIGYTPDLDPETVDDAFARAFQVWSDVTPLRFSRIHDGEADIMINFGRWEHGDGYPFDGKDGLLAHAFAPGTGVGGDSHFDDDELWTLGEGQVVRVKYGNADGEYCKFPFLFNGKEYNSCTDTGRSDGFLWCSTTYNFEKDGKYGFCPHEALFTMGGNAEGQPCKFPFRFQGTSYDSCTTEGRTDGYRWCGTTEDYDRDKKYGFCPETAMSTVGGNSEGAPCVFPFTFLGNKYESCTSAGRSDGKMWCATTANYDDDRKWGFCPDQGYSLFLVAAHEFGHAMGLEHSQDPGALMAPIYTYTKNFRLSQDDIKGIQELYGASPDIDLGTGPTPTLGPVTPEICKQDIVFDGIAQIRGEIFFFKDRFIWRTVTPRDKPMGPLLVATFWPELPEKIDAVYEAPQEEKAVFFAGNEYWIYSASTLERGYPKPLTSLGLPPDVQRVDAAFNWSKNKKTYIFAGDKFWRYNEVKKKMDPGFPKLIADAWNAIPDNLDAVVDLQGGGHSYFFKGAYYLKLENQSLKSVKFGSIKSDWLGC
Measurement notes: In vitro inhibition of human Matrix metalloprotease 2
Field: class. Source value: IC50. Ranges: low interval (below 20 nM), middle interval (20 nM to below 90 nM), high interval (90 nM or more)

As a guide, the following entries are already answered.
{"Cpd smiles": "O=C(O)CCN1CCN(C2(c3ccc(Oc4ccc(Br)cc4)cc3)C(=O)NC(=O)NC2=O)CC1", "Experimental target": "72 kDa type IV collagenase (Homo sapiens, UniProt P08253)", "Class assignment": "middle interval"}
{"Cpd smiles": "O=C1NC(=O)C(c2ccc(Oc3ccc(Br)cc3)cc2)(N2CCN(c3ccc(I)cc3)CC2)C(=O)N1", "Experimental target": "72 kDa type IV collagenase (Homo sapiens, UniProt P08253)", "Class assignment": "middle interval"}
{"Cpd smiles": "O=C1NC(=O)C(c2ccc(Oc3ccc(Br)cc3)cc2)(N2CCN(CCBr)CC2)C(=O)N1", "Experimental target": "72 kDa type IV collagenase (Homo sapiens, UniProt P08253)", "Class assignment": "middle interval"}

Looking at `O=C1NC(=O)C(c2ccc(Oc3ccc(Br)cc3)cc2)(N2CCN(c3ccc([N+](=O)[O-])cc3)CC2)C(=O)N1` , which class would you pick?
low interval

Looking at `C[Si](C)(C)c1ccc(N2CCN(C3(c4ccc(Oc5ccc(Br)cc5)cc4)C(=O)NC(=O)NC3=O)CC2)cc1` , which class would you pick?
high interval

Looking at `O=C1NC(=S)NC(=O)C1(c1ccc(Oc2ccc(Br)cc2)cc1)N1CCN(CCO)CC1` , which class would you pick?
low interval

Looking at `O=C1NC(=O)C(c2ccc(Oc3ccc(Br)cc3)cc2)(N2CCNCC2)C(=O)N1` , which class would you pick?
low interval

Looking at `O=C1NC(=O)C(c2ccc(Oc3ccc(Br)cc3)cc2)C(=O)N1` , which class would you pick?
high interval

Looking at `O=C1NC(=O)C(c2ccc(Oc3ccc(Br)cc3)cc2)(N2CCN(C(=O)c3cccc(I)c3)CC2)C(=O)N1` , which class would you pick?
low interval

----------
Experimental target: Matrix metalloproteinase-9 (Homo sapiens, UniProt P14780)
Sequence (P14780 whole entry): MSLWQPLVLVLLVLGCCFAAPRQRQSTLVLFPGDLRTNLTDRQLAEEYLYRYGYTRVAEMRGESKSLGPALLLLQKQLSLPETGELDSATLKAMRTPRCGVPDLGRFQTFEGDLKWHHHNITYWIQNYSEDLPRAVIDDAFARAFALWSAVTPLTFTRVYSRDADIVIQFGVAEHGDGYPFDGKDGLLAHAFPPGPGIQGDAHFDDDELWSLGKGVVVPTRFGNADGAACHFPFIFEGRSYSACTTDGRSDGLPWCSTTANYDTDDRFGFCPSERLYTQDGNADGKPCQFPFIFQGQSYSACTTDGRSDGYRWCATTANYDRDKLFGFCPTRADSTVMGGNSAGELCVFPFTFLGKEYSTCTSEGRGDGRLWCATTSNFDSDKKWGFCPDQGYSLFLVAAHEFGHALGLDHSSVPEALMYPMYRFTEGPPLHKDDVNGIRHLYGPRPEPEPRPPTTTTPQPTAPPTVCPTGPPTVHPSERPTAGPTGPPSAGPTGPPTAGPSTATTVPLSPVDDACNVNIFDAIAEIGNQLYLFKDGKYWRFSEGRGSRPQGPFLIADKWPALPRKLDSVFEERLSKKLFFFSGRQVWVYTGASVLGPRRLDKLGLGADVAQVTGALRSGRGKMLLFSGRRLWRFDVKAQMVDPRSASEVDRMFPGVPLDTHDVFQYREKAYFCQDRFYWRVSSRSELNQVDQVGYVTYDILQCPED
Measurement notes: In vitro inhibition of human Matrix metalloprotease 9
# Lookup of reported pIC50 keyed by entry
When answering, recall that pIC50 equals minus log10 of the concentration in mol/L, and write that number alone.

Before answering, review these 5 worked examples.
{"Cpd smiles": "O=C(O)CCN1CCN(C2(c3ccc(Oc4ccc(Br)cc4)cc3)C(=O)NC(=O)NC2=O)CC1", "Readout number": 7.59}
{"Cpd smiles": "C[Si](C)(C)c1ccc(N2CCN(C3(c4ccc(Oc5ccc(Br)cc5)cc4)C(=O)NC(=O)NC3=O)CC2)cc1", "Readout number": 6.26}
{"Cpd smiles": "O=C1NC(=O)C(c2ccc(Oc3ccc(Br)cc3)cc2)(N2CCNCC2)C(=O)N1", "Readout number": 8.70}
{"Cpd smiles": "O=C1NC(=O)C(c2ccc(Oc3ccc(Br)cc3)cc2)(N2CCN(c3ccc([N+](=O)[O-])cc3)CC2)C(=O)N1", "Readout number": 7.24}
{"Cpd smiles": "O=C1NC(=O)C(c2ccc(Oc3ccc(Br)cc3)cc2)(N2CCN(CCBr)CC2)C(=O)N1", "Readout number": 7.59}

Give the measured pIC50 of `NCCN1CCN(C2(c3ccc(Oc4ccc(Br)cc4)cc3)C(=O)NC(=O)NC2=O)CC1` .
7.85

Give the measured pIC50 of `O=C1NC(=O)C(c2ccc(Oc3ccc(Br)cc3)cc2)(N2CCN(C(=O)c3cccc(I)c3)CC2)C(=O)N1` .
7.70

Give the measured pIC50 of `O=C1NC(=O)C(c2ccc(Oc3ccc(Br)cc3)cc2)(N2CCN(c3ccc(I)cc3)CC2)C(=O)N1` .
8.00

----------
Species on record: Homo sapiens
Measurement notes: Ratio of IC50 for human Matrix metalloprotease 2 binding and Matrix metalloprotease 9
# Lookup of reported Selectivity keyed by entry

Before answering, review these 5 worked examples.
{"Cpd smiles": "O=C1NC(=O)C(c2ccc(Oc3ccc(Br)cc3)cc2)(N2CCN(c3ccc(F)cc3)CC2)C(=O)N1", "Recorded metric": "Selectivity", "Result": 0.63}
{"Cpd smiles": "O=C1NC(=O)C(c2ccc(Oc3ccc(Br)cc3)cc2)(N2CCN(c3ccc(I)cc3)CC2)C(=O)N1", "Recorded metric": "Selectivity", "Result": 8.6}
{"Cpd smiles": "CC(C)N1CCN(C2(c3ccc(Oc4ccc(Br)cc4)cc3)C(=O)NC(=O)NC2=O)CC1", "Recorded metric": "Selectivity", "Result": 26}
{"Cpd smiles": "O=C1NC(=O)C(c2ccc(Oc3ccc(Br)cc3)cc2)(N2CCN(CCBr)CC2)C(=O)N1", "Recorded metric": "Selectivity", "Result": 1.2}
{"Cpd smiles": "O=C1NC(=O)C(c2ccc(Oc3ccc(I)cc3)cc2)(N2CCN(CCO)CC2)C(=O)N1", "Recorded metric": "Selectivity", "Result": 3.5}

Give the measured Selectivity of `O=C1NC(=O)C(c2ccc(Oc3ccc(Br)cc3)cc2)(N2CCN(c3ccc([N+](=O)[O-])cc3)CC2)C(=O)N1` .
0.28

Give the measured Selectivity of `NCCN1CCN(C2(c3ccc(Oc4ccc(Br)cc4)cc3)C(=O)NC(=O)NC2=O)CC1` .
0.71

Give the measured Selectivity of `O=C1NC(=O)C(c2ccc(Oc3ccc(Br)cc3)cc2)(N2CCNCC2)C(=O)N1` .
2.5

Give the measured Selectivity of `COc1ccc(Oc2ccc(C3(N4CCN(CCO)CC4)C(=O)NC(=O)NC3=O)cc2)cc1` .
1.5

Give the measured Selectivity of `O=C1NC(=O)C(c2ccc(Oc3ccc(Br)cc3)cc2)(N2CCN(CCO)CC2)C(=O)N1` .
2.3

Give the measured Selectivity of `C[Si](C)(C)c1ccc(N2CCN(C3(c4ccc(Oc5ccc(Br)cc5)cc4)C(=O)NC(=O)NC3=O)CC2)cc1` .
2.7

Give the measured Selectivity of `O=C1NC(=O)C(c2ccc(Oc3ccc(Br)cc3)cc2)(N2CCN(C(=O)c3cccc(I)c3)CC2)C(=O)N1` .
0.75

Give the measured Selectivity of `O=C(O)CCN1CCN(C2(c3ccc(Oc4ccc(Br)cc4)cc3)C(=O)NC(=O)NC2=O)CC1` .
3.3
